# SYSTEM_NAME: Gal(b1-4)GlcNAc(b1-3)Gal(b1-4)GlcNAc(b1-3)Gal(b1-4)GlcNAc(b1-3)Gal(b1-4)GlcNAc(b1-3)Gal(b1-4)GlcNAc(b1-2)[Gal(b1-4)GlcNAc(b1-3)Gal(b1-4)GlcNAc(b1-3)Gal(b1-4)GlcNAc(b1-3)Gal(b1-4)GlcNAc(b1-3)Gal(b1-4)GlcNAc(b1-6)]Man(a1-6)[Gal(b1-4)GlcNAc(b1-3)Gal(b1-4)GlcNAc(b1-3)Gal(b1-4)GlcNAc(b1-3)Gal(b1-4)GlcNAc(b1-3)Gal(b1-4)GlcNAc(b1-2)Man(a1-3)]Man(b1-4)GlcNAc(b1-4)[Fuc(a1-6)]GlcNAc
# ASSAY_REMARKS: glycan array binding signal (z-score within array); higher = stronger binding
# CONDITION: glycan notation: IUPAC condensed, linker removed
Many of the other results were omitted from the sample, so the strongest signals are more common in it than they were.
List of glycan array binding signal (z-score) values.
READOUT_TYPE: glycan array binding signal (z-score)

[[record]]
binder = "CBP21 (Serratia marcescens), O83009 (protein) MNKTSRTLLSLGLLSAAMFGVSQQANAHGYVESPASRAYQCKLQLNTQCGSVQYEPQSVEGLKGFPQAGPADGHIASADKSTFFELDQQTPTRWNKLNLKTGPNSFTWKLTARHSTTSWRYFITKPNWDASQPLTRASFDLTPFCQFNDGGAIPAAQVTHQCNIPADRSGSHVILAVWDIADTANAFYQAIDVNLSK"
recorded_measurement = 2.67

[[record]]
binder = "AFL5 (Aspergillus fumigatus), Q4WB00 (protein) MDNFMEMTKKLGHQPELLRLRALDATYDDALEGKLVVAPLDMSEPGKKILDSGTADGTWLRNVRSKQSVPHDYYGSDVEGELFPKDPDGITYFAHSFKDPWPQQYLGFFDLVHIRGSLAGSAPEGPAPVIQNLTTLLKPGGWVQLMEMNAFSPPPNGPAMTDFAKMASEMFTGIGVGDFANNNKSMLEDAGLKNVQEKRVIVNLGKKAKPELHDQSIHGVTGPIVPLTSVARTVKSSFTGEQLDALPARVKEELETEGGQVEMIIAFGQKA"
recorded_measurement = 1.6

[[record]]
binder = "SJCP1531 (Schistosoma japonicum) (protein) MFKVRIINLVNISTVLLLINLLQTKSQVNVEQLVTVLEVNIKAQLKNKTTEVLVEWNPLYQDNSMPEYRKLLDETCKLFLPFVNEKVPPSTYGGECTNANFSEAPQDGSYSRVNAELRLIYKYSDNPQIQTDRLQDDLNDREEFITSESSFVAYNPKFTVKIEKLFIPISESQTTPPPTTAKNDASKKDDDDNGGEDSKAPIDTFAMTASGNKGKKDDDDNGGEDSKAPIDTFAMTASGSKDERSTWTIIGIITLVVLIFVVIGGGITVFVKRC"
recorded_measurement = 2.63

[[record]]
binder = "FimD (Bordetella pertussis) (protein) MPARVISFCGAALAVWAGLAVQPAMAVDPPVDCGRALGLHFWSSASLISDQTPDGTLIGKPVVGRSLLSKSCKVPDDIKEDLSDNHDGEPVDIVLELGSNYKIRPQSYGHPGIVVDLPFGSTEETGIAIYIDFGSSPMQKVGERQWLYPQKGEVLFDVLTINGDNAEVRYQAIKVGPLKRPRKLVLSQFPNLFTYKWVFMRGTSQERVLAQGTIDTDVATSTIDLKTCRYTSQTVSLPIIQRSALTGVGTTLGMTDFQMPFWCYGWPKVSVYMSATKTQTGVDGVALPATGQAAGMASGVGVQLINGKTQQPVKLGLQGKIALPEAQQTESATFSLPMKAQYYQTSTSTSAGKLSVTYAVTLNYD"
recorded_measurement = 0.919

[[record]]
binder = "SJCP1084 (Schistosoma japonicum) (protein) MRIINLVIISTALLLINLLQTKSQANGEDTKNGTPDDPGLTKSTELKVEVQALLKDKKTNMRVKWNENLLDNTKPEYHNLRDEACELLLQIVRSVVPLSQDDGECKDVTFTKYVVGTKDGAVNVKLTITFKDSVAINQKPMDLKLKLENDFKNLQSESTLKATKPTFTVKVEKRLIPISKPQTTPPTTAKNDASKENVGDIGGEDSTVPTAAPATAASANEEKDEGDKDNKDSQHPNVLTSNVNDRNLIIALVALMILAIGVALTAAVKQR"
recorded_measurement = 4.79

[[record]]
binder = "Als3-41 (Candida albicans) (protein) KTITGVFNSFNSLTWSNAATYNYKGPGTPTWNAVLGWSLDGTSASPGDTFTLNMPCVFKFTTSQTSVDLTAHGVKYATCQFQAGEEFMTFSTLTCTVSNTLTPSIKALGTVTLPLAFNVGGTGSSVDLEDSKCFTAGTNTVTFNDGGKKISINVDFERSNVDPKGYLTDSRVIPSLNKVSTLFVAPQCANGYTSGTMGFANTYGDVQIDCSNIHVGITKGLNDWNYPVSSESFSYTKTCSSNGIFITYKNVPAGYRPFVDAYISATDVNSYTLSYANEYTCAGGYWQRAPFTLRWTGYRNSDAGSNGIVIVATTRTVTDSTTAVTTLPFDPNRDKTKTIEILKPIPTTTITTSYVGVTTSYLTKTAPIGETATVIVD"
recorded_measurement = -0.117

[[record]]
binder = "Epa7 (Candida glabrata), Q6DTM6_CANGB (protein) MGSSHHHHHHSSGLVPRGSHMKDDYSSFLSNNNLGWTDPTEFPLGCSPNVTTPKNGLSMELYSYDLRKNGSYPCWDAAYLDPNYPRTGYKSHRLLAKVDGVTGNINFYYHATKGCTPEIDHLPASYNYPKPLTMTNFTMLLYGYFKPKVTGYHTFTISADDLLFVNFGAGNAFDCCKRESSADDFGNYQAYAVWGSQTAKDDLTVHLDAGLYYPIRIFFNNREYDAELSLTLKTESDSNPVIDFSDYFYSFDDTKDGCPGLVSYDTS"
recorded_measurement = 0.068

[[record]]
binder = "LF82 (Escherichia coli) (protein) ADWGPCRTASGDPFIFVTSFTKNIQNPTDNVTGQTYPDFYQWALGDKYSGVCECPSPNPTEARPTLYKTESTLAAGHNSTYFKITNNLEVSTRVYIANVGNVQVPFINKSNSQPGRECDQPTFGWTTGSKGQLSLYIAKPFVGEQNIPQTIIVSVFGTKKENVYSSVPISQVLLSGKVTVTQGCELAAGTSLDIDFGEYQAHDFKGRTGQPPQNVQKIQKELTFNCTNISDGVHIYLSLEGTPNAAYPSAISLGNADVGAVIEDGKGNILKPNDSNSLLEMNPGSLYEYVKRKVTTTITAYPVSTTGKLPAAGDYSGVATMHVELDGGGGGGGGGGATTDLGAKGTLKFSLKISQGHHHHHH"
recorded_measurement = 3.2

